Assign pKi to each entry below.
target: HGFR (Homo sapiens, UniProt P08581); construct: purchased Upstate 14-526; assay: HGFR continuous-coupled spectrophotometric assay (tyrosine kinase activity on Met-2 substrate peptide); assay type: biochemical; conditions: HGFR 50 nM, Met-2 peptide 0.5 mM, ATP 300 μM, 37° C., absorbance 340 nm; read-out: Ki
Sequence (P08581 974-1390 limits assumed): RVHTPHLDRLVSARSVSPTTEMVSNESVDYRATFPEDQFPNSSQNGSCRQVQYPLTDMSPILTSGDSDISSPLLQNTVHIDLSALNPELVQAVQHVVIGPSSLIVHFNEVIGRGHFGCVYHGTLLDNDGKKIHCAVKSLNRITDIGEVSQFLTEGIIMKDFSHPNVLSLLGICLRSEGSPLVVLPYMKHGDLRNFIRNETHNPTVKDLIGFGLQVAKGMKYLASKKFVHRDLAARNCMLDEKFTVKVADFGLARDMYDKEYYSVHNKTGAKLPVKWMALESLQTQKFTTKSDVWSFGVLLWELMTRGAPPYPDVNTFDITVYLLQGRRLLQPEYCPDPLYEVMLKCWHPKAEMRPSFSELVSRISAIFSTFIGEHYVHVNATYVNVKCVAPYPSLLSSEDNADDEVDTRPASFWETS
In plain terms, pKi is the concentration in mol/L turned into minus its base-10 logarithm.

Recorded result, OC1CCN(C2CCN(c3cnc4nnn(Cc5ccc6ncccc6c5)c4n3)C2)CC1 (stereo in doubt) [Example 170] , pKi: 7.68

The compound listed as FC(F)c1nnc2n1CCN(c1cnc3nnn(Cc4ccc5ncccc5c4)c3n1)C2 [Example 108] shows pKi equal to 7.59

Recorded pKi (compound CCC1C(=O)NCCN1c1cnc2nnn(Cc3ccc4ncccc4c3)c2n1 (stereo not drawn) [Example 97] ): 7.70
